# Target under test: T1, mature myostatin (recombinant, dimeric) (mouse polyprotein used for in-house …, UniProt O08689 268-376)
# T1 construct: also called GDF-8; recombinant myostatin
# T1 sequence: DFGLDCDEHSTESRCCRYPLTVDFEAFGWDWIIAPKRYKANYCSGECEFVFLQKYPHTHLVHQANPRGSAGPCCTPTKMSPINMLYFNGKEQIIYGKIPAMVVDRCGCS
# Protocol notes: competition ELISA, myostatin captured by polyclonal antibody, competitor 10B3
Quantity measured: ranking order top (1) to bottom (5), myostatin competition ELISA
// keep it numeric: no unit symbol after the value

Example cases with answers are listed next.
- H2L2-C91S_G99D (antibody, human IgG1, kappa, name in Kabat numbering, V domains shown) VH: QVQLVQSGAEVKKPGASVKVSCKASGYSFTGYFMHWVRQAPGQGLEWMGNIYPYNGVSNYNQRFKARVTMTTDTSTSTAYMELRSLRSDDTAVYYCARRYYYDTGPADWYFDVWGQGTLVTVSS VL: DIQMTQSPSSLSASVGDRVTITCKASQDINSYLSWFQQKPGKAPKSLIYRANRLVDGVPSKFSGSGSGTDYTLTISSLQPEDFATYYCLQSDEFPLTFGQGTKLEIKR: 5
- H2L2-C91S_V102N (antibody, human IgG1, kappa, name in Kabat numbering, V domains shown) VH: QVQLVQSGAEVKKPGASVKVSCKASGYSFTGYFMHWVRQAPGQGLEWMGNIYPYNGVSNYNQRFKARVTMTTDTSTSTAYMELRSLRSDDTAVYYCARRYYYGTGPADWYFDNWGQGTLVTVSS VL: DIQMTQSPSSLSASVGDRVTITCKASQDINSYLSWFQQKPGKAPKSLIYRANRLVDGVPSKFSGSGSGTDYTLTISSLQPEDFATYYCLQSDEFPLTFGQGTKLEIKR: 2
- H2L2-C91S_V102S (antibody, human IgG1, kappa, name in Kabat numbering, V domains shown) VH: QVQLVQSGAEVKKPGASVKVSCKASGYSFTGYFMHWVRQAPGQGLEWMGNIYPYNGVSNYNQRFKARVTMTTDTSTSTAYMELRSLRSDDTAVYYCARRYYYGTGPADWYFDSWGQGTLVTVSS VL: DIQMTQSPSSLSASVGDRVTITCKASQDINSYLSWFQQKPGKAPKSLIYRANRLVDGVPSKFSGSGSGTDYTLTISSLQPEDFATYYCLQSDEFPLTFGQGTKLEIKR: 3

Here is another binder to look at.
I'd like to know its ranking order top (1) to bottom (5), myostatin competition ELISA. The binder in question is H2L2-C91S_P100B_F (antibody, human IgG1, kappa, V domains shown) VH: QVQLVQSGAEVKKPGASVKVSCKASGYSFTGYFMHWVRQAPGQGLEWMGNIYPYNGVSNYNQRFKARVTMTTDTSTSTAYMELRSLRSDDTAVYYCARRYYYGTGFADWYFDVWGQGTLVTVSS VL: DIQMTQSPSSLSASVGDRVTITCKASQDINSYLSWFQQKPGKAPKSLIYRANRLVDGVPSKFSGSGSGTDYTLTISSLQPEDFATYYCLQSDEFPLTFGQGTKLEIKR
1

Cited source for all entries: patent US20110256132A1
